biological target: Glucocorticoid receptor (Homo sapiens) (UniProt P04150); assay: Transactivation activity of glucocorticoid receptor in HFF assessed as induction of aromatase activity by measuring beta-estradiol activity after 18 to 24 hrs by ELISA relative to Dexamethasone
REPORTED_ENDPOINT: Efficacy (%)
Answer format: numeric, % implied, no suffix.

Previously resolved entries follow.
COMPOUND	REPORTED_ENDPOINT	NUMERIC_RESULT
COc1ccc(F)cc1C(C)(C)C[C@@](O)(Cc1cc2cc(C#N)ccc2[nH]1)C(F)(F)F	Efficacy	71
COc1ccc(F)cc1C(C)(C)CC(O)(Cc1cc2c(C(F)(F)F)cccc2[nH]1)C(F)(F)F (racemic)	Efficacy	30

Param readout= Efficacy; system= Glucocorticoid receptor (Homo sapiens) (UniProt P04150); entry= COc1ccc(F)cc1C(C)(C)C[C@@](O)(Cc1cc2ccccc2[nH]1)C(F)(F)F ; returns value.
98

Param readout= Efficacy; system= Glucocorticoid receptor (Homo sapiens) (UniProt P04150); entry= COc1ccc(F)cc1C(C)(C)CC(O)(Cc1cc2cc(C#N)ccc2[nH]1)C(F)(F)F (racemic) ; returns value.
81

Param readout= Efficacy; system= Glucocorticoid receptor (Homo sapiens) (UniProt P04150); entry= CC(C)(CC(O)(Cc1cc2cc(C#N)ccc2[nH]1)C(F)(F)F)c1cc(S(C)(=O)=O)cc2c1OCC2 (racemic) ; returns value.
63

Param readout= Efficacy; system= Glucocorticoid receptor (Homo sapiens) (UniProt P04150); entry= COc1ccc(F)cc1C(C)(C)CC(O)(Cc1cc2ccc(C#N)cc2[nH]1)C(F)(F)F (racemic) ; returns value.
98

Param readout= Efficacy; system= Glucocorticoid receptor (Homo sapiens) (UniProt P04150); entry= COc1ccc(F)cc1C(C)(C)CC(O)(Cc1cc2c(C#N)cccc2[nH]1)C(F)(F)F (racemic) ; returns value.
91

Param readout= Efficacy; system= Glucocorticoid receptor (Homo sapiens) (UniProt P04150); entry= COc1ccc(F)cc1C(C)(C)CC(O)(Cc1cc2cccc(C)c2[nH]1)C(F)(F)F (racemic) ; returns value.
26

====

Molecular target: Glucocorticoid receptor (Homo sapiens, UniProt P04150)
Sequence (P04150 whole entry): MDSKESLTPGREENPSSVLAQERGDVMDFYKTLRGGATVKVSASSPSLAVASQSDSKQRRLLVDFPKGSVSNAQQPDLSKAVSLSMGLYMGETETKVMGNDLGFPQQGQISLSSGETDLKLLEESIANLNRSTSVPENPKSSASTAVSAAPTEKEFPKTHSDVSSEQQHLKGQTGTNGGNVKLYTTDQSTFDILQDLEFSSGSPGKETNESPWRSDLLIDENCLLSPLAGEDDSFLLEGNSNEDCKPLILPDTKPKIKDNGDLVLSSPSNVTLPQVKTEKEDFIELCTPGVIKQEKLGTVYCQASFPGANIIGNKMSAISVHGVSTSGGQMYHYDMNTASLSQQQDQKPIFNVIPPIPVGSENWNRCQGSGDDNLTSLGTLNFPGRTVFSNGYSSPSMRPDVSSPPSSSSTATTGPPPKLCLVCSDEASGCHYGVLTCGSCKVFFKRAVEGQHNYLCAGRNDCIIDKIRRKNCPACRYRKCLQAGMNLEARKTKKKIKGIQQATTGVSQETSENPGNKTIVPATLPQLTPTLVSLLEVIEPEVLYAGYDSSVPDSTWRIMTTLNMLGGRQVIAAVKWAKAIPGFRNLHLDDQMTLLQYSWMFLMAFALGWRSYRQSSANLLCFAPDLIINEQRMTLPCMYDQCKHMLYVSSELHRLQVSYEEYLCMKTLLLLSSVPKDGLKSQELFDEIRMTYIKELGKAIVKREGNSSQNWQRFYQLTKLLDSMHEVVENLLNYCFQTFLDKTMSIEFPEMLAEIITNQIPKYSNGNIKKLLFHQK
Assay: Transactivation activity of glucocorticoid receptor in HFF assessed as induction of aromatase activity by measuring beta-estradiol activity after 18 to 24 hrs by ELISA
Conditions: read-out: EC50
Parameter pEC50: see the listing below.
Conceptually, pEC50 converts a concentration in mol/L into minus its log10.

MOLECULE	STUDY_TARGET	pEC50
COc1ccc(F)cc1C(C)(C)CC(O)(Cc1cc2ccc(C)cc2[nH]1)C(F)(F)F (racemic)	Glucocorticoid receptor (Homo sapiens, UniProt P04150)	6.01
COc1ccc(F)cc1C(C)(C)C[C@@](O)(Cc1cc2cc(C#N)ccc2[nH]1)C(F)(F)F	Glucocorticoid receptor (Homo sapiens, UniProt P04150)	8.22
CC(C)(C[C@@](O)(Cc1cc2ccc(C#N)cc2[nH]1)C(F)(F)F)c1cc(S(C)(=O)=O)cc2c1OCC2	Glucocorticoid receptor (Homo sapiens, UniProt P04150)	6.92

Find the recorded pEC50 belonging to CC(C)(CC(O)(Cc1cc2ccccc2[nH]1)C(F)(F)F)c1cccc2c1OCC2 (racemic) and report it.
6.51

Find the recorded pEC50 belonging to COc1ccc(F)cc1C(C)(C)CC(O)(Cc1cc2cc(C#N)ccc2[nH]1)C(F)(F)F (racemic) and report it.
7.55

====

Parameter Efficacy: see the listing below.
molecular target: Glucocorticoid receptor (Homo sapiens); assay: Agonist activity at glucocorticoid receptor in HFF assessed as inhibition of IL1-induced IL-6 production after 18 to 24 hrs relative to Dexamethasone; type: functional
Answer format: numeric, % implied, no suffix.

COMPOUND	READOUT_UNITS	NUMERIC_RESULT
CC(C)(CC(O)(Cc1cc2ccccc2[nH]1)C(F)(F)F)c1cc(S(C)(=O)=O)cc2c1OCC2 (racemic)	%	84
COc1ccc(F)cc1C(C)(C)C[C@@](O)(Cc1cc2ccccc2[nH]1)C(F)(F)F	%	87
COc1ccc(F)cc1C(C)(C)CC(O)(Cc1cc2cc(C)ccc2[nH]1)C(F)(F)F (racemic)	%	86

In the following, a different compound is considered.
Find the recorded Efficacy belonging to CC(C)(CC(O)(Cc1cc2ccccc2[nH]1)C(F)(F)F)c1cccc2c1OCC2 (racemic) and report it.
83

====

molecular target: UniProt:P04150; assay: Agonist activity at glucocorticoid receptor in HFF assessed as inhibition of IL1-induced IL-6 production after 18 to 24 hrs relative to Dexamethasone; format: functional
Parameter Efficacy: see the listing below.
Answer format: numeric, % implied, no suffix.

Find the recorded Efficacy belonging to COc1ccc(F)cc1C(C)(C)CC(O)(Cc1cc2cccc(C#N)c2[nH]1)C(F)(F)F (racemic) and report it.
30

Find the recorded Efficacy belonging to COc1ccc(F)cc1C(C)(C)CC(O)(Cc1cc2ccc(F)cc2[nH]1)C(F)(F)F (racemic) and report it.
94

Find the recorded Efficacy belonging to COc1ccc(F)cc1C(C)(C)CC(O)(Cc1cc2cc(C#N)ccc2[nH]1)C(F)(F)F (racemic) and report it.
89

Find the recorded Efficacy belonging to COc1ccc(F)cc1C(C)(C)CC(O)(Cc1cc2cccc(F)c2[nH]1)C(F)(F)F (racemic) and report it.
75

====

biological target: UniProt:P08235; assay: Displacement of tetramethylrhodamine-labeled Dexamethasone from human recombinant mineralocorticoid receptor expressed in baculovirus infected insect cells by fluorescence polarization assay
Sequence (P08235 whole entry): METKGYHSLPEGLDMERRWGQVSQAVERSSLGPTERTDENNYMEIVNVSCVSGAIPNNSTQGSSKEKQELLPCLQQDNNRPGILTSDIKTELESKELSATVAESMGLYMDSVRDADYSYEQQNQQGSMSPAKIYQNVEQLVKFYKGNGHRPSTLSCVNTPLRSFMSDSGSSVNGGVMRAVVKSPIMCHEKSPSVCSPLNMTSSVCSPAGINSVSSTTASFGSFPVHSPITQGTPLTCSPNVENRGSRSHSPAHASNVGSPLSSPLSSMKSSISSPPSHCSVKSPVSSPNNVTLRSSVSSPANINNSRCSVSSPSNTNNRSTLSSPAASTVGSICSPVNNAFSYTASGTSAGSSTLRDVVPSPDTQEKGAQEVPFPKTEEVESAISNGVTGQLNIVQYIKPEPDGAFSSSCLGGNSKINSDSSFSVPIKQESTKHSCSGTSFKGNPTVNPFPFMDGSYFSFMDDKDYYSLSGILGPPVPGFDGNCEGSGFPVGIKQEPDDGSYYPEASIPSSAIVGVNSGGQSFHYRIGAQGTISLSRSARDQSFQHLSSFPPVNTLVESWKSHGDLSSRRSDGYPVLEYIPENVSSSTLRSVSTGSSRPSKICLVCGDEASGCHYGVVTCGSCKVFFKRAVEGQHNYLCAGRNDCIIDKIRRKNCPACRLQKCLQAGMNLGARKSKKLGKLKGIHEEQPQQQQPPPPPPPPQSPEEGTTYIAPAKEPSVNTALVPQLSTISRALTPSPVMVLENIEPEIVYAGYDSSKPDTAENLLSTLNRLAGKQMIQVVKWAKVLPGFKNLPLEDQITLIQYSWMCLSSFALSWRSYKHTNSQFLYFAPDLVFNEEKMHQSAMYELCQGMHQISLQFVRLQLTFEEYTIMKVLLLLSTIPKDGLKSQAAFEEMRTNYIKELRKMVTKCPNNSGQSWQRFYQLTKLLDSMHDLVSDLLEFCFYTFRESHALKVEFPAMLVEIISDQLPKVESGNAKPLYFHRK
REPORTED_ENDPOINT: pIC50
Conceptually, pIC50 converts a concentration in mol/L into minus its log10.

Previously resolved entries follow.
COMPOUND	pIC50
CC(C)(C[C@](O)(Cc1cc2ccc(C#N)cc2[nH]1)C(F)(F)F)c1cc(S(C)(=O)=O)cc2c1OCC2	6.39
CCc1cccc2[nH]c(CC(O)(CC(C)(C)c3cc(F)ccc3OC)C(F)(F)F)cc12 (racemic)	6.10
CC(C)(CC(O)(Cc1cc2ccccc2[nH]1)C(F)(F)F)c1cc(C#N)cc2c1OCC2 (racemic)	6.39
CC(C)(CC(O)(Cc1cc2ccccc2[nH]1)C(F)(F)F)c1cc(S(C)(=O)=O)cc2c1OCC2 (racemic)	6.21
COc1ccc(F)cc1C(C)(C)CC(O)(Cc1cc2c(C#N)cccc2[nH]1)C(F)(F)F (racemic)	6.65

Find the recorded pIC50 belonging to COc1ccc(F)cc1C(C)(C)C[C@@](O)(Cc1cc2ccccc2[nH]1)C(F)(F)F and report it.
6.72

Find the recorded pIC50 belonging to COc1ccc(F)cc1C(C)(C)CC(O)(Cc1cc2cccc(C)c2[nH]1)C(F)(F)F (racemic) and report it.
5.99

Find the recorded pIC50 belonging to COc1ccc(F)cc1C(C)(C)CC(O)(Cc1cc2c(C)cccc2[nH]1)C(F)(F)F (racemic) and report it.
6.38

Find the recorded pIC50 belonging to CC(C)(CC(O)(Cc1cc2ccccc2[nH]1)C(F)(F)F)c1cccc2c1OCC2 (racemic) and report it.
6.40

Find the recorded pIC50 belonging to CC(C)(C[C@@](O)(Cc1cc2ccc(C#N)cc2[nH]1)C(F)(F)F)c1cc(S(C)(=O)=O)cc2c1OCC2 and report it.
6.64

Find the recorded pIC50 belonging to CC(C)(CC(O)(Cc1cc2ccccc2[nH]1)C(F)(F)F)c1cc(F)cc2c1OCC2 (racemic) and report it.
6.58

Find the recorded pIC50 belonging to COc1ccc(F)cc1C(C)(C)C[C@@](O)(Cc1cc2cc(C#N)ccc2[nH]1)C(F)(F)F and report it.
7.35

Find the recorded pIC50 belonging to COc1ccc(F)cc1C(C)(C)CC(O)(Cc1cc2ccc(C#N)cc2[nH]1)C(F)(F)F (racemic) and report it.
6.36

Find the recorded pIC50 belonging to COc1ccc(F)cc1C(C)(C)CC(O)(Cc1cc2ccc(F)cc2[nH]1)C(F)(F)F (racemic) and report it.
6.46
